Values from paper PMC7948503

Target: T1, Rluc-ADGRG2-ΔGPS-β T610A (mouse, UniProt Q8CJ12-3 38-995, T610A)
T1 construct: ADGRG2 (GPR64), mouse, ADGRG2-ΔGPS-β: the entire ECD removed; source: HEK293, transfected, on cells; not shown: Rluc, N-terminal, kept
T1 sequence (Q8CJ12 other isoform, or with tags, fused parts or gaps T610A | T610A | T610A T610A): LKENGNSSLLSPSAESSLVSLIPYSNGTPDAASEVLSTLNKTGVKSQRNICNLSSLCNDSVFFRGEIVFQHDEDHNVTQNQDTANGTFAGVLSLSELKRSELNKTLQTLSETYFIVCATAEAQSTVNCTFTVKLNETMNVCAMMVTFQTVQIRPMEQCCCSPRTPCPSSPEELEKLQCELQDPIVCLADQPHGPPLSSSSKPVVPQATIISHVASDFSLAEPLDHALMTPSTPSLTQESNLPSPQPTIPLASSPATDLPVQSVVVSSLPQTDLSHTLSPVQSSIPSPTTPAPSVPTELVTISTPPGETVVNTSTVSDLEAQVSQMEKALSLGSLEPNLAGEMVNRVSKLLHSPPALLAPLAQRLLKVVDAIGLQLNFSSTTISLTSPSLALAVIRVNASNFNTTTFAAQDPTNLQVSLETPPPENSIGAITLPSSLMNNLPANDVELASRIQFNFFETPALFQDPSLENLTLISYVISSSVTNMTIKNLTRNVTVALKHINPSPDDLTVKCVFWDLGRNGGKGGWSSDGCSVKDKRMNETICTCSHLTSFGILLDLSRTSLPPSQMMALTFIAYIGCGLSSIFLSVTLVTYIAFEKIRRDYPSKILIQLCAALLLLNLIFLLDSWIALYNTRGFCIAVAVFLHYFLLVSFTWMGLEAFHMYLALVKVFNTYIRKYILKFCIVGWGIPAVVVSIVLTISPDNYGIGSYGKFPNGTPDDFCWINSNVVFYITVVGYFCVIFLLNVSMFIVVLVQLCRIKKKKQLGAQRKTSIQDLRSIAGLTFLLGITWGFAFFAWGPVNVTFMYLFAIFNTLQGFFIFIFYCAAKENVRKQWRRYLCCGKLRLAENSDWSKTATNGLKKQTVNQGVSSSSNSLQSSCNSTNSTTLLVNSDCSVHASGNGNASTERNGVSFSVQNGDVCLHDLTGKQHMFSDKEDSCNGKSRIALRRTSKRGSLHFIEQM
Assay: FRET or BRET; HEK293 cells transfected with Rluc-ADGRG2-ΔGPS-β WT or mutants, stimulated by increasing concentrations of FITC-conjugated VPM-p15; saturation curves fitted with GraphPad; each experiment repeated 6 times
Details: one partner purified
Non-standard residues stand in square brackets, D forms with d. Primed or numbered codes have the meaning given here. No end group written: not given here. Phe(4-Me) = Cc1ccc(C[C@H](N)C(=O)O)cc1; FITC′ = not defined here
PROPERTY: pEC50
Numbers only, as −log10 of the molar value.

Lookup: Entry under review: VS[Phe(4-Me)]GILLDLSRTSLP-{FITC′} [FITC-conjugated VPM-p15 (ADGRG2 Stachel peptide p15 T1V/F3Phe(4-Me))] . Reported pEC50?
Found: 5.95
